Listing of recorded pEC50 by entry.
# System: HCV 1b-BB7 subgenomic replicon
# PROTOCOL_DESCRIPTION: microbe, parasite or virus in culture
# Type: cell-based, HCV genotype 1b
# EXPERIMENTAL_PARAMETERS: Hepatitis C virus, stable replicon, strain 1b BB7, 5% FBS + 40% human plasma; read-out: 1b BB7 5% FBS + 40% Human Plasma EC50
Remember, pEC50 is on a log scale: it is -log10 of the molar concentration.

Worked cases, answers included:
# COMPOUND, TEST_READOUT, VALUE_OBSERVED
records = [
    ("CS(=O)(=O)N(CCc1ccccc1)c1cc2oc(-c3ccc(F)cc3)c(-c3ncc[nH]3)c2cc1C1CC1 [Example 35]", "pEC50", 5.95),
    ("CS(=O)(=O)N(CCCS(N)(=O)=O)c1cc2oc(-c3ccc(F)cc3)c(C3=NOCN3)c2cc1C1CC1 [Example 15]", "pEC50", 6.09),
]

Next compound, pEC50 to be filled in.
Provide value of pEC50 for this record tested with HCV 1b-BB7 subgenomic replicon: CC(C)=CCN(c1cc2oc(-c3ccc(F)cc3)c(-c3ncc[nH]3)c2cc1C1CC1)S(C)(=O)=O [Example 54]
6.13
